These measurements were taken from the RNAGym collection of RNA variant scans (doi:10.7554/elife.80360).

B1: CPEB3 Ribozyme (parent)
chain: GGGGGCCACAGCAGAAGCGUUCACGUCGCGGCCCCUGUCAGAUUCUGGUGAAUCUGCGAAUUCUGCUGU

# Variants of: B1
# protocol: self-cleavage, relative activity (ratio to wild type); higher = more cleavage; co-transcriptional
Binary call on self-cleavage: met from 0.5 upward, not met beneath that.

Example entries and their recorded answers appear below.
# mutationList, class
data = [
    ("A8C U55C", "met"),
    ("C18A C29U", "not met"),
    ("G14C U38C", "not met"),
    ("C24G G41A", "not met"),
    ("C45A G58U", "met"),
]

## Input Threshold query (self-cleavage >= 0.5) on C12A U53C
## Output not met

## Input Quick check: does A52C U53G have self-cleavage greater than or equal to 0.5?
## Output met

## Input Decide: is the reported value of self-cleavage for U53C G58U equal to or greater than 0.5?
## Output met

## Input Say whether A10U G17A shows self-cleavage of 0.5 or more.
## Output met

## Input Check if self-cleavage >= 0.5 (inclusive). Item: G30A G48A
## Output met

## Input Reported self-cleavage reaches at least 0.5 for G41U G50A ?
## Output met
